Every entry's value here was drawn from patent US20240132473A1.

# TEST DESCRIPTION: Pharmacokinetic test in SD rats, single intragastric administration
# PROTOCOL CONDITIONS: rat, plasma, po, 25 mg/kg
Output criterion met for records whose Tmax is lower than 6 h, criterion not met for records at or above 6 h.

MOLECULE | LABEL
CC(C)(O)c1cc2nn(CCS(=N)(=O)c3ccccc3)cc2cc1NC(=O)c1cccc(C(F)(F)F)n1 (stereo not shown) | criterion not met
COc1cc2nn(CCS(=N)(=O)c3ccccc3)cc2cc1NC(=O)c1cccc(C(F)(F)F)n1 (stereo not shown) | criterion not met
CC(C)(O)c1cc2nn(CCS(C)(=N)=O)cc2cc1NC(=O)c1cccc(C(F)(F)F)n1 (stereo not shown) [MY-004-102, reference compound] | criterion met
CC(C)(O)c1cc2nn(CCS(=N)(=O)c3ncnc4ccccc34)cc2cc1NC(=O)c1cccc(C(F)(F)F)n1 (stereo not shown) | criterion met
COc1cc2nn(CCS(=N)(=O)c3ccncc3)cc2cc1NC(=O)c1cnn2cccnc12 (stereo not shown) | criterion met
N=S(=O)(CCn1cc2cc(NC(=O)c3cccc(C(F)(F)F)n3)c(N3CCOCC3)cc2n1)c1ccncc1 (stereo not shown) | criterion met

* * *

Record type: pIC50 measurement. Applies to: IRAK4 kinase (Homo sapiens (Human))
pIC50: −log10 of the molar value.

COMPOUND | pIC50
N=S(=O)(CCn1cc2cc(NC(=O)c3cccc(C(F)(F)F)n3)c(N3CCOCC3)cc2n1)c1ccccc1 (stereo not shown) [Compound I-3] | 9.22
CN=S(=O)(CCn1cc2cc(NC(=O)c3cccc(C(F)(F)F)n3)c(OC)cc2n1)c1ccccc1 (stereo not shown) [Compound I-25] | 9.30
COc1cc2nn(CCS(=N)(=O)c3ccncc3)cc2cc1NC(=O)c1cccc(C(F)(F)F)n1 (stereo not shown) [Compound I-5] | 9.40
COc1cc2nn(CCS(=N)(=O)c3ccncc3)cc2cc1NC(=O)c1cnn2cccnc12 (stereo not shown) [Compound I-21] | 9.30
Cc1cc(-c2nc(C(=O)Nc3cc4cn(CCS(=N)(=O)c5ncccn5)nc4cc3C(C)(C)O)co2)ccn1 (stereo not shown) [Compound I-32] | 9.30
Cc1cc(-c2nc(C(=O)Nc3cc4cn(CCS(=N)(=O)c5ccncc5)nc4cc3C(C)(C)O)co2)ccn1 (stereo not shown) [Compound I-16] | 9.30
COc1cc2nn(CCS(=N)(=O)c3ccnc4ccccc34)cc2cc1NC(=O)c1cccc(C(F)(F)F)n1 (stereo not shown) [Compound I-9] | 9.70

* * *

# SUBJECT OF TEST: UniProtKB Q12809
# Sequence (Q12809 whole entry): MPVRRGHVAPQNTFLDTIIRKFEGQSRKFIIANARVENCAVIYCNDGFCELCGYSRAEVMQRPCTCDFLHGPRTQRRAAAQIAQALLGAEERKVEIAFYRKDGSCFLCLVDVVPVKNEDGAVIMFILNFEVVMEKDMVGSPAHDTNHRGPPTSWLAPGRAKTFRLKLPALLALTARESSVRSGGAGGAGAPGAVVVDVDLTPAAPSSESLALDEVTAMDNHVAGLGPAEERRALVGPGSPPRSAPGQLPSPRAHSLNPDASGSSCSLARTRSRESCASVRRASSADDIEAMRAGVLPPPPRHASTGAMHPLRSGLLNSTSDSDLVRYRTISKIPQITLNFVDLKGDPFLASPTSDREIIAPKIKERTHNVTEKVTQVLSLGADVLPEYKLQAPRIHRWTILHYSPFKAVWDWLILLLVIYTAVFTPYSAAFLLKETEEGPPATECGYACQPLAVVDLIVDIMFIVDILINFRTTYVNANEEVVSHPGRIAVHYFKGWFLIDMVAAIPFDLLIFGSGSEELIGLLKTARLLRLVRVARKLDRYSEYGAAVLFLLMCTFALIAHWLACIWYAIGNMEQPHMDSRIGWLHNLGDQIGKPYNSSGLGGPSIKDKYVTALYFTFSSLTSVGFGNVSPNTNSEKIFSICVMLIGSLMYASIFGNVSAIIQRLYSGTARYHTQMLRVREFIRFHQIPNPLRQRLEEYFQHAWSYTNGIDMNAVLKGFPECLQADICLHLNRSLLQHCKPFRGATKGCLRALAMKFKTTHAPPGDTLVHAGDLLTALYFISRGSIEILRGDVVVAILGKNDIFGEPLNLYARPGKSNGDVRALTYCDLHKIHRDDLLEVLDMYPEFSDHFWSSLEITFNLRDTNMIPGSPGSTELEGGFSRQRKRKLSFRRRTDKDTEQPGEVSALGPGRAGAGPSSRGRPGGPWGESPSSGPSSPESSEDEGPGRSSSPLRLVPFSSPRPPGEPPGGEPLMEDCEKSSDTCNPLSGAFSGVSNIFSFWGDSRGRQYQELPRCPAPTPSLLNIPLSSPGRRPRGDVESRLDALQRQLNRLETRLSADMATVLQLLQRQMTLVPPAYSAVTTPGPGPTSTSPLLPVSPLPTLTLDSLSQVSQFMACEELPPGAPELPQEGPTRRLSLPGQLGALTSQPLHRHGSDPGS
# TEST DESCRIPTION: cell-based
# PROTOCOL CONDITIONS: human, 500 μM
// reported Inhibition rate (%) of hERG current for each item listed

COMPOUND | Inhibition rate (%) of hERG current
CC(C)(O)c1cc2nn(CCS(=N)(=O)c3ncnc4ccccc34)cc2cc1NC(=O)c1cccc(C(F)(F)F)n1 (centres unmarked) | 11.5%
COc1cc2nn(CCS(=N)(=O)c3ccncc3)cc2cc1NC(=O)c1cccc(C(F)(F)F)n1 (centres unmarked) | 13.4%
COc1cc2nn(CCS(=N)(=O)c3ccncc3)cc2cc1NC(=O)c1cnn2cccnc12 (centres unmarked) | 29.7%
COc1cc2nn(CCS(=N)(=O)c3ccccc3)cc2cc1NC(=O)c1cccc(C(F)(F)F)n1 (centres unmarked) | 15.6%
COc1cc2nn(CCS(=N)(=O)c3ncccn3)cc2cc1NC(=O)c1cccc(C(F)(F)F)n1 (centres unmarked) | 6.7%
CC(C)(O)c1cc2nn(CCS(=N)(=O)c3ccccc3)cc2cc1NC(=O)c1cccc(C(F)(F)F)n1 (centres unmarked) | 12.3%
Cc1cc(-c2nc(C(=O)Nc3cc4cn(CCS(=N)(=O)c5ccnc6ccccc56)nc4cc3C(C)(C)O)co2)ccn1 (centres unmarked) | 13.9%
CC(C)(O)c1cc2nn(CCS(=N)(=O)c3ccnc4ccccc34)cc2cc1NC(=O)c1cccc(C(F)(F)F)n1 (centres unmarked) | 20.3%

* * *

# TEST DESCRIPTION: Pharmacokinetic test in SD rats, single intragastric administration
# PROTOCOL CONDITIONS: rat, in vivo, po, 25 mg/kg

COMPOUND | UNIT STRING | Cmax
CC(C)(O)CCn1cc2cc(NC(=O)c3cccc(C(F)(F)F)n3)c(C(C)(C)O)cc2n1 [BAY-1830839, reference compound] | ng/mL | 223
CC(C)(O)c1cc2nn(CCS(C)(=O)=O)cc2cc1NC(=O)c1cccc(C(F)(F)F)n1 [BAY-1834845, reference compound] | ng/mL | 201

* * *

# TEST DESCRIPTION: Pharmacokinetic test in SD rats, single intragastric administration
# PROTOCOL CONDITIONS: rat, plasma, po, 25 mg/kg
One threshold, 6 h, splits the recorded Tmax values: lower ones are 1.0, equal or higher ones are 0.0.

COMPOUND | LABEL
COc1cc2nn(CCS(=N)(=O)c3ccnc4ccccc34)cc2cc1NC(=O)c1cccc(C(F)(F)F)n1 (stereo not shown) | 1.0
COc1cc2nn(CCS(=N)(=O)c3ncco3)cc2cc1NC(=O)c1cccc(C(F)(F)F)n1 (stereo not shown) | 1.0
Cc1cc(-c2nc(C(=O)Nc3cc4cn(CCS(=N)(=O)c5ccccn5)nc4cc3N3CCC(O)C3)co2)ccn1 (stereo not shown) | 1.0
COc1cc2nn(CCS(=N)(=O)c3ccncc3)cc2cc1NC(=O)c1cccc(C(F)(F)F)n1 (stereo not shown) | 0.0
COc1cc2nn(CCS(=N)(=O)c3ncccn3)cc2cc1NC(=O)c1cccc(C(F)(F)F)n1 (stereo not shown) | 1.0

* * *

A collection of compounds and their measured half-life
# TEST DESCRIPTION: in vivo
# PROTOCOL CONDITIONS: SD, rat, in vivo, po
RECORDED METRIC: half-life (h)

COMPOUND | RECORDED METRIC | DATA VALUE
N=S(=O)(CCn1cc2cc(NC(=O)c3cccc(C(F)(F)F)n3)c(N3CCC(O)C3)cc2n1)c1ccccc1 (stereo not shown) [Compound I-4] | half-life | 4.7
COc1cc2nn(CCS(=N)(=O)c3ccncc3)cc2cc1NC(=O)c1coc(-c2ccnc(C)c2)n1 (stereo not shown) [Compound I-15] | half-life | 6
N=S(=O)(CCn1cc2cc(NC(=O)c3cccc(C(F)(F)F)n3)c(N3CCOCC3)cc2n1)c1ccncc1 (stereo not shown) [Compound I-7] | half-life | 5
CC(C)(O)c1cc2nn(CCS(=N)(=O)c3ccnc4ccccc34)cc2cc1NC(=O)c1cccc(C(F)(F)F)n1 (stereo not shown) [Compound I-10] | half-life | 4.7
CC(C)(O)c1cc2nn(CCS(C)(=N)=O)cc2cc1NC(=O)c1cccc(C(F)(F)F)n1 (stereo not shown) [MY-004-102, reference compound] | half-life | 1.4
COc1cc2nn(CCS(=N)(=O)c3ncccn3)cc2cc1NC(=O)c1cccc(C(F)(F)F)n1 (stereo not shown) [Compound I-31] | half-life | 4.5
Cc1cc(-c2nc(C(=O)Nc3cc4cn(CCS(=N)(=O)c5ccncc5)nc4cc3C(C)(C)O)co2)ccn1 (stereo not shown) [Compound I-16] | half-life | 6.3

* * *

# TEST DESCRIPTION: Pharmacokinetic test in SD rats, single intragastric administration
# PROTOCOL CONDITIONS: rat, plasma, po, 25 mg/kg
RECORDED METRIC: Tmax (h)

COMPOUND | UNIT STRING | DATA VALUE
COc1cc2nn(CCS(C)(=N)=O)cc2cc1NC(=O)c1cccc(C(F)(F)F)n1 (centres unmarked) [MY-004-103, reference compound] | h | 1.4
CC(C)(O)c1cc2nn(CCS(=N)(=O)c3ccnc4ccccc34)cc2cc1NC(=O)c1cccc(C(F)(F)F)n1 (centres unmarked) | h | 6.3
N=S(=O)(CCn1cc2cc(NC(=O)c3cnn4cccnc34)c(N3CCC(O)C3)cc2n1)c1ccccn1 (centres unmarked) | h | 6.2
Cc1cc(-c2nc(C(=O)Nc3cc4cn(CCS(=N)(=O)c5ccncc5)nc4cc3N3CCOCC3)co2)ccn1 (centres unmarked) | h | 5.8
N=S(=O)(CCn1cc2cc(NC(=O)c3cccc(C(F)(F)F)n3)c(N3CCC(O)C3)cc2n1)c1ccccc1 (centres unmarked) | h | 6

* * *

# TEST DESCRIPTION: Pharmacokinetic test in SD rats, single intragastric administration
# PROTOCOL CONDITIONS: rat, plasma, po, 25 mg/kg

MOLECULE | Cmax [ng/mL]
Cc1cc(-c2nc(C(=O)Nc3cc4cn(CCS(=N)(=O)c5ccnc6ccccc56)nc4cc3C(C)(C)O)co2)ccn1 (stereo not drawn) | 1370
N=S(=O)(CCn1cc2cc(NC(=O)c3cnn4cccnc34)c(N3CCC(O)C3)cc2n1)c1ccccn1 (stereo not drawn) | 1420
CC(C)(O)c1cc2nn(CCS(=N)(=O)c3ccccc3)cc2cc1NC(=O)c1cccc(C(F)(F)F)n1 (stereo not drawn) | 1580
N=S(=O)(CCn1cc2cc(NC(=O)c3cccc(C(F)(F)F)n3)c(N3CCOCC3)cc2n1)c1ccncc1 (stereo not drawn) | 1500
N=S(=O)(CCn1cc2cc(NC(=O)c3cccc(C(F)(F)F)n3)c(N3CCC(O)C3)cc2n1)c1ccccc1 (stereo not drawn) | 1500
COc1cc2nn(CCS(=N)(=O)c3ccnc4ccccc34)cc2cc1NC(=O)c1cccc(C(F)(F)F)n1 (stereo not drawn) | 1420
Cc1cc(-c2nc(C(=O)Nc3cc4cn(CCS(=N)(=O)c5ccncc5)nc4cc3C(C)(C)O)co2)ccn1 (stereo not drawn) | 1360
COc1cc2nn(CCS(=N)(=O)c3ccccc3)cc2cc1NC(=O)c1cccc(C(F)(F)F)n1 (stereo not drawn) | 1600
COc1cc2nn(CCS(=N)(=O)c3ncco3)cc2cc1NC(=O)c1cccc(C(F)(F)F)n1 (stereo not drawn) | 1490
CC(C)(O)c1cc2nn(CCS(=N)(=O)c3ccnc4ccccc34)cc2cc1NC(=O)c1cccc(C(F)(F)F)n1 (stereo not drawn) | 1510
COc1cc2nn(CCS(C)(=N)=O)cc2cc1NC(=O)c1cccc(C(F)(F)F)n1 (stereo not drawn) [MY-004-103, reference compound] | 245
Cc1cc(-c2nc(C(=O)Nc3cc4cn(CCS(=N)(=O)c5ccncc5)nc4cc3N3CCOCC3)co2)ccn1 (stereo not drawn) | 1430
